Taken from paper PMC6255327.

Test system: C. krusei ATCC 6258
experimental_protocol: microbe, parasite or virus in culture
Format: cell-based, Candida krusei
experimental_conditions: ATCC 6258, 48 h, pH 7; read-out: Minimal inhibitory concentration (MIC)
Measured MIC, listed per entry for reference.
experimental_endpoint: MIC (µM)

1) NCCCC[C@H](NC(=O)OCc1ccccc1Cl)C(=O)N[C@@H](Cc1ccccc1)C(=O)NCCCN(CCCNC(=O)[C@H](Cc1ccccc1)NC(=O)[C@H](CCCCN)NC(=O)OCc1ccccc1Cl)CCC[C@@H](CO)N(CCCNC(=O)[C@H](Cc1ccccc1)NC(=O)[C@H](CCCCN)NC(=O)OCc1ccccc1Cl)CCCNC(=O)[C@H](Cc1ccccc1)NC(=O)[C@H](CCCCN)NC(=O)OCc1ccccc1Cl [Compound 10c] | 27.3
2) NCCCC[C@H](NC(=O)OCc1ccccc1Cl)C(=O)N[C@@H](Cc1ccccc1)C(=O)NCCCN(CCCC[C@@H](CO)N(CCCNC(=O)[C@H](Cc1ccccc1)NC(=O)[C@H](CCCCN)NC(=O)OCc1ccccc1Cl)CCCNC(=O)[C@H](Cc1ccccc1)NC(=O)[C@H](CCCCN)NC(=O)OCc1ccccc1Cl)CCCNC(=O)[C@H](Cc1ccccc1)NC(=O)[C@H](CCCCN)NC(=O)OCc1ccccc1Cl [Compound 10d] | 3.4
3) NCCCC[C@H](NC(=O)OCc1ccccc1Cl)C(=O)NCCCN[C@@H](CCN(CCCNC(=O)[C@H](CCCCN)NC(=O)OCc1ccccc1Cl)CCCNC(=O)[C@H](CCCCN)NC(=O)OCc1ccccc1Cl)C(=O)NCc1ccccc1 [Compound 7f] | 44
